# procedure_text: Study 1 SAD part: plasma pharmacokinetics after single oral doses
# Format: in vivo, human
# reported_conditions: male, human, plasma, oral; single 10 mg; arithmetic mean (CV%); read-out: AUC0‐24h
endpoint_name: AUC (ng·h/mL)
Entry rule: numbers only, all in ng·h/mL.

Problem: Any idea what its AUC is? The compound is `O=c1nc(OC[C@@H]2COCCO2)cc2n1CCc1cc(C#CC3CC3)ccc1-2`
Solution: 1330

====

# procedure_text: Study 1 MAD part: plasma and urine pharmacokinetics, once daily for 14 days
# Type: in vivo, human
# reported_conditions: male, human, plasma, oral, 50 mg, 50 mg once daily, day 14; dosing interval 24 hours; mean (CV%)
# Description: GLPG1205 or matching placebo were administered as an oral nanosuspension in the morning in a fed condition as an outpatient. […] GLPG1205 plasma concentrations were determined using a validated liquid chromatography with tandem mass spectrometry method. […] A QTRAP6500, QTRAP4000, or API4000 mass spectrometer (AB Sciex, Nieuwerkerk aan den Ijssel, The Netherlands) equipped with a TurboIonSpray probe operated in the multiple reaction monitoring in positive mode was used for quantification. […]
endpoint_name: AUC (µg·h/mL)
# unit: µg·h/mL | format: bare number

Problem: # lookup: AUC of O=c1nc(OC[C@@H]2COCCO2)cc2n1CCc1cc(C#CC3CC3)ccc1-2 [GLPG1205]
Solution: 41.3
